# method.summary: Inhibition of Clostridium perfringens carbonic anhydrase preincubated for 15 mins by stopped flow CO2 hydration assay

{"columns": ["compound", "sign.qualifier", "Ki (mM)"],
 "data": [
  ["S [SODIUM HYDROSULFIDE]", "=", 4],
  ["O=P(O)(O)OP(=O)(O)O [SODIUM PYROPHOSPHATE]", "=", 2.7],
  ["N=C=S [SODIUM ISOTHIOCYANATE]", "=", 0.83],
  ["[O-][Cl+3]([O-])([O-])O [SODIUM PERCHLORATE]", ">", 200],
  ["O=NO [SODIUM NITRITE]", "=", 4.1],
  ["O=BOB(O)OB(O)OB=O [SODIUM TETRABORATE]", "=", 2.5],
  ["[I-].[Na+] [SODIUM IODIDE]", "=", 63.4],
  ["O=[N+]([O-])[O-].[Na+] [SODIUM NITRATE]", "=", 4.6],
  ["O=S(=O)([O-])[O-].[Na+].[Na+] [SODIUM SULFATE ANHYDROUS]", "=", 7.9],
  ["O=S(=O)(O)OOS(=O)(=O)O [SODIUM PERSULFATE]", "=", 9.2],
  ["O=[Te](=O)(O)O [SODIUM TELLURATE]", "=", 3.3],
  ["O=S(=O)(O)ONOS(=O)(=O)O [SODIUM IMINODISULFATE]", "=", 4.9],
  ["O=S([O-])O.[Na+] [SODIUM BISULFITE]", "=", 4.9],
  ["[Br-].[Na+] [SODIUM BROMIDE]", "=", 21.5],
  ["O=[Se](=O)(O)O [SODIUM SELENATE]", "=", 0.47],
  ["O=C([O-])[O-].[Na+].[Na+] [SODIUM CARBONATE]", "=", 0.65],
  ["[F-].[Na+] [SODIUM FLUORIDE]", "=", 4.8],
  ["O=C([O-])O.[Na+] [SODIUM BICARBONATE]", "=", 2.1],
  ["[N-]=[N+]=[N-] [SODIUM AZIDE]", "=", 4.2],
  ["S=C(S)S [SODIUM CARBONOTRITHIOATE]", "=", 1],
  ["NS(=O)(=O)O [SULFAMATE]", "=", 0.009],
  ["OB(O)c1ccccc1 [PHENYLBORONIC ACID]", "=", 0.075],
  ["[Cl-].[Na+] [SODIUM CHLORIDE]", "=", 4.3],
  ["CCN(CC)C(=S)S [DITIOCARB SODIUM]", "=", 0.36],
  ["O=[As](O)(O)c1ccccc1 [PHENYLARSONIC ACID]", "=", 0.007],
  ["CC(=O)Nc1nnc(S(N)(=O)=O)s1 [ACETAZOLAMIDE]", "=", "4.9e-05"],
  ["F[B-](F)(F)F.[Na+] [SODIUM TETRAFLUOROBORATE]", ">", 200]
]}
